All figures here come from patent US20210188980A1.

# TESTED SYSTEM: T1, human PD-1-His protein (human, UniProt Q15116 25-167, limits assumed)
# T1 construct: also called huPD-1; not shown: His tag
# T1 sequence (Q15116 25-167 limits assumed): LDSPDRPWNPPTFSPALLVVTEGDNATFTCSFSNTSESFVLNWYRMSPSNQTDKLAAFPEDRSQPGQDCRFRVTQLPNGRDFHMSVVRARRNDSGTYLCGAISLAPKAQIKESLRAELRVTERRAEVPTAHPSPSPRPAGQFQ
# PROTOCOL: SPR Biacore, Ab captured, huPD-1-His analyte
Label rule, in plain words: kon of 100000 M⁻¹ s⁻¹ and up is rule met, under 100000 M⁻¹ s⁻¹ is rule not met.

Example results:
1. HumAb709-10 (antibody, human IgG1, kappa, L234A L235A, V domains shown, humanized mAb709) VH: EVQLVESGGGLVQPGGSLRLSCAASGFTFSFYTMSWVRQAPGKGLEWVATISGGGRDTYYPDSVKGRFTISRDNAKNSLYLQMNSLRAEDTAVYYCARQGGNYLFAYWGQGTLVTVSS VL: DIVMTQSPSSLSASVGDRVTITCKASQDVNTVVAWYQQKPGKAPKVLISWASTRHTGVPSRFTGSGSGTDYTLTISSLQPEDFATYYCQQHYTTPYTFGGGTKVEIKR    rule met
2. HumAb709-8 (antibody, human IgG1, kappa, L234A L235A, V domains shown, humanized mAb709; also called HurnAb709-8) VH: EVQLVESGGGLVQPGGSLRLSCAASGFTFSFYTMSWVRQAPGKGLEWVATISGGGRDTYYPDSVKGRFTISRDNAKNSLYLQMNSLRAEDTAVYYCAGQGGNYLFAYWGQGTLVTVSS VL: DIVMTQSPSSLSASVGDRVTITCKASQDVNTVVAWYQQKPGKAPKVLISWASTRHTGVPSRFSGSGSGTDYTLTISSLQPEDFATYYCQQHYTTPYTFGGGTKVEIKR    rule met

# evaluate next
**Q:** Test whether the binder HumAb709-1 (antibody, human IgG1, kappa, L234A L235A, V domains shown, humanized mAb709) VH: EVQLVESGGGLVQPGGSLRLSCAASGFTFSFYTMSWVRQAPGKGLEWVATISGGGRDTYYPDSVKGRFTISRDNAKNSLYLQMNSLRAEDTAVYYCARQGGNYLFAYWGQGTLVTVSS VL: DIQMTQSPSSLSASVGDRVTITCKASQDVNTVVAWYQQKPGKAPKLLIYWASTRHTGVPSRFSGSGSGTDYTLTISSLQPEDFATYYCQQHYTTPYTFGGGTKVEIKR records kon of 100000 M⁻¹ s⁻¹ or higher.
**A:** rule met
